- Tested on: male rats
- EXPERIMENT: Plasma metabolite profiling (GC-MS, LC-MS, SPE-LC-MS) in male rats dosed once daily over 28 days (OECD 407)
- Assay type: in vivo, rat
- STATED CONDITIONS: m14; high dose; Table 14b
Where a name gives a salt, the structure may show the parent alone.
Rule: measured Sphingomyelin (d18:2, C16:0) below 0.5 gets true; anything equal to or greater than 0.5 gets false.

The examples below pair each entry with its known result.
{"columns": ["COMPOUND", "CLASSIFICATION"],
 "data": [
  ["O=C(c1ccc(OCCN2CCCCC2)cc1)c1c(-c2ccc(O)cc2)sc2cc(O)ccc12 [Raloxifene Hydrochloride]", "false"],
  ["C[C@]12C=CC3=C4CCC(=O)C=C4CCC3C1CC[C@@H]2O (stereo partly drawn)", "true"],
  ["C[C@]12CCC(=O)C=C1CC[C@@H]1[C@@H]2CC[C@@]2(C)[C@H]1CC[C@]2(C)O", "true"],
  ["CC/C(=C(\\c1ccccc1)c1ccc(OCCN(C)C)cc1)c1ccccc1", "false"],
  ["OCCNCCO", "false"]
]}

Does the reported Sphingomyelin (d18:2, C16:0) of `C#C[C@]1(O)CC[C@H]2[C@@H]3CCc4cc(O)ccc4[C@H]3CC[C@@]21C` stay below 0.5? true
